molecular target: anti-A035 antibody (C4 PET); assay: peptide competition assay in 6% BSA
Where no end group is shown, it is not given here.
endpoint name: IC50

Query (binder): CEANEDYEDYEYDE-NH2 [A035 peptide (C4), …-NH2] ; field requested: IC50
4 nM
